- Test system: SEM cells
- assay-name: cell viability relative to DMSO control; higher = less cytotoxic
- test-conditions: RPMI 5 mM glucose + 10% dialyzed FBS; 48 h; 0.0211 µM
Could you please report measured cell viability for the items listed next?
Numbers only, in %.

{"compound": "N=C(NCCCCCCNC(=N)NC(=N)Nc1ccc(Cl)cc1)NC(=N)Nc1ccc(Cl)cc1", "cell viability [%]": 87.9}
{"compound": "CCC(C)(C)c1ccc(CC(C)CN2C[C@@H](C)O[C@@H](C)C2)cc1 (stereo partly drawn)", "cell viability [%]": 91.7}

Please look at the following compound next.
I am curious: what cell viability value has been reported for CC/1=C(/N2[C@H](SC1)[C@H](NC(=O)[C@H](N)\C3=C\C\C=C/C3)C2=O)C(O)=O ? 87.4

---

- Test system: P12-Ichikawa
- assay-name: cell viability relative to DMSO control; higher = less cytotoxic
- test-conditions: RPMI 5 mM glucose + 10% dialyzed FBS; 48 h; 15.4 µM
readout-label: cell viability
Give the figure together with its unit, number first.

Study these solved cases before continuing.
{"sample-smiles": "CN1C[C@H]2c3ccccc3Oc3ccc(Cl)cc3[C@@H]2C1", "tested-target": "P12-Ichikawa", "reported-measurement": "84.3%"}
{"sample-smiles": "Cc1ccc([S+](=O)([O-])N[C@@H](Cc2ccccc2)C(=O)CCl)cc1", "tested-target": "P12-Ichikawa", "reported-measurement": "105%"}
{"sample-smiles": "O=C1c2c(O)ccc(O)c2C(=O)c2c(NCCNCCO)ccc(NCCNCCO)c21", "tested-target": "P12-Ichikawa", "reported-measurement": "7.62%"}
{"sample-smiles": "C/C=C(/C)C(=O)O[C@H]1C(C)=C[C@]23C(=O)[C@@H](C=C(CO)[C@@H](O)[C@]12O)[C@H]1[C@@H](C[C@H]3C)C1(C)C", "tested-target": "P12-Ichikawa", "reported-measurement": "81.1%"}
{"sample-smiles": "COC(=O)[C@@H]1[C@H]2C[C@H]3c4[nH]c5ccccc5c4CCN3C[C@@H]2CC[C@@H]1O", "tested-target": "P12-Ichikawa", "reported-measurement": "32.9%"}
{"sample-smiles": "O=C(O)c1ccc2c(c1)nc(Nc1cccc(Cl)c1)c1ccncc12", "tested-target": "P12-Ichikawa", "reported-measurement": "51.4%"}

The following compounds each have a reported value; give each one's cell viability.
1. FC1=CC=C(SC/2=N/N3\C=N/C(=O)/C(=C3/C=C2)C4=C(Cl)C=CC=C4Cl)C(=C1)F
2. CC/1=C(/N2[C@H](SC1)[C@H](NC(=O)[C@H](N)\C3=C\C\C=C/C3)C2=O)C(O)=O

86%
133%

---

- Test system: NOMO1
- assay-name: AUC of viability dose-response curve (% viability x log10 dose units); higher = less sensitive
- test-conditions: RPMI 5 mM glucose + 10% dialyzed FBS; 48 h
readout-label: AUC of viability dose-response curve
Numbers only.

Below, each entry is followed by its recorded AUC of viability dose-response curve result.
{"sample-smiles": "COc1cc2ncnc(Nc3ccc(F)c(Cl)c3)c2cc1NC(=O)/C=C/CN1CCCCC1", "AUC of viability dose-response curve": 418}
{"sample-smiles": "N#Cc1c(NC(=O)c2cccc3ccccc23)sc2c1CCCC2", "AUC of viability dose-response curve": 346}
{"sample-smiles": "COc1ccc(C(C)=O)c(O)c1", "AUC of viability dose-response curve": 381}
{"sample-smiles": "Cc1cn([C@@H]2O[C@H](CO)[C@@H](O)[C@@H]2F)c(=O)[nH]c1=O", "AUC of viability dose-response curve": 458}
{"sample-smiles": "COC1=C2OC(=O)\\C=C/C2=CC3=C1OC=C3", "AUC of viability dose-response curve": 466}

Now, please, on to the next molecule.
Fill in: AUC of viability dose-response curve of NC\1=N\C(=O)N(\C=C1)[C@@H]2O[C@H](CO)[C@@H](O)[C@H]2O is ___ 466

---

Record form. Attribute: cell viability. Fill in for each entry.
- System: SEM cells
- assay-name: cell viability relative to DMSO control; higher = less cytotoxic
- test-conditions: RPMI 5 mM glucose + 10% FBS; 48 h; 46.1 µM
One number for each entry, in %.

Answer for every listed entry: what is its cell viability? The entries follow.
1. COc1cc2ncnc(Nc3ccc(F)c(Cl)c3)c2cc1NC(=O)/C=C/CN1CCCCC1
2. CC(C)(C)c1[nH]cnc1/C=c1\[nH]c(=O)/c(=C/c2ccccc2)[nH]c1=O

[42.3, 2.89]

Record cell viability for all entries; do not skip any.
1. COc1cc2c(cc1OC)CC(=O)N(CCCN(C)C[C@H]1Cc3cc(OC)c(OC)cc31)CC2.Cl
2. CC(C)C1=C(O)C=C(O)C(=C1)C/2=N/NC(=O)N2C3=CC4=C(C=C3)[N](C)C=C4
3. CN1CCCN=C1/C=C/c1cccs1.O=C(O)c1cc2ccccc2c(Cc2c(O)c(C(=O)O)cc3ccccc23)c1O
4. C[C@@H]1CC[C@H]2[C@@H](C)C(=O)O[C@@H]3O[C@@]4(C)CC[C@@H]1[C@]32OO4

93.4
15.4
15
114

Working through the 6 compounds below one at a time, give cell viability for each.
1. O=C(Nc1c(Cl)cncc1Cl)c1ccc(OC(F)F)c(OCC2CC2)c1
2. CSCC[C@@H](NC(=O)[C@@H](Cc1ccccc1)NC(=O)CNC(=O)CNC(=O)[C@@H](N)Cc1ccc(O)cc1)C(=O)O
3. CN1\C(=C(\O)C2=CC=CC=C2[S+]1([O-])=O)C(=O)NC3=NC=C(C)S3
4. O=C(NC[C@H](O)CO)c1ccncc1Nc1ccc(I)cc1F
5. NC/1=N/C2=C([NH]C=N2)C(=S)N1
6. C\C1=C(\C=C(\C#N)C(=O)N1)C2=CC=NC=C2

1. 103
2. 120
3. 91.3
4. 43.6
5. 16.1
6. 97.8

---

- System: SEM cells
- assay-name: cell viability relative to DMSO control; higher = less cytotoxic
- test-conditions: RPMI 5 mM glucose + 10% FBS; 48 h; 0.0211 µM
Give measured cell viability for each item. Keep answers brief.
Answers are plain numbers, in %.

Some solved cases for reference:
{"molecule": "C[C@]1(c2nc3c(C(N)=O)cccc3[nH]2)CCCN1", "cell viability (%)": 88.8}
{"molecule": "O=C(O)c1ccc2c(c1)nc(Nc1cccc(Cl)c1)c1ccncc12", "cell viability (%)": 103}
{"molecule": "CC1(C)O[C@@H]2C[C@H]3[C@@H]4CCC5=CC(=O)C=C[C@]5(C)[C@H]4[C@@H](O)C[C@]3(C)[C@]2(C(=O)CO)O1", "cell viability (%)": 95.7}
{"molecule": "O=C(O[C@H]1C[C@H]2CC[C@@H](C1)[N+]21CCCC1)C(O)(c1ccccc1)c1ccccc1.[Cl-]", "cell viability (%)": 98.9}
{"molecule": "O=C(Nc1ccc(F)c(C(F)(F)F)c1)Nc1nnc(-c2ccncc2)s1", "cell viability (%)": 103}
{"molecule": "COc1ncc(-c2ccc3nccc(-c4ccnnc4)c3c2)cc1N[S+](=O)([O-])c1ccc(F)cc1F", "cell viability (%)": 61.7}
{"molecule": "CCC(C)(Oc1ccc(C2(c3ccc(OC(C)(CC)C(=O)O)cc3)CCCCC2)cc1)C(=O)O (centres undefined)", "cell viability (%)": 113}
{"molecule": "CC(C)C1=C(O)C=C(O)C(=C1)C/2=N/NC(=O)N2C3=CC4=C(C=C3)[N](C)C=C4", "cell viability (%)": 101}
{"molecule": "CCOC(=O)\\C1=C(/C)N\\C2=C(C1C3=CC=C(C=C3)C4=CC=CC=C4)\\C(=O)CC(C)(C)C2 (centres undefined)", "cell viability (%)": 114}
{"molecule": "NC/1=N/C2=C([NH]C=N2)C(=S)N1", "cell viability (%)": 105}

Batch lookup, cell viability per entry.
1. COc1ccc(C(C)=O)c(O)c1
2. CC(C)C[C@@H](C=O)NC(=O)[C@H](CC(C)C)NC(=O)[C@H](CC(C)C)NC(=O)OCc1ccccc1

[124, 143]

Here are 3 molecules. What values of cell viability were reported for them?
1. COCCCN1CCC(NC(=O)c2cc(Cl)c(N)c3c2OCC3)CC1
2. COc1ccc(C2CNC(=O)C2)cc1OC1CCCC1 (centres undefined)
3. CC(C)=CC[C@@H](O)C/1=C/C(=O)C2=C(O)C=CC(=C2C1=O)O

1: 122; 2: 81.7; 3: 81.9

Please go through the list and note cell viability for each molecule.
1. OC1CCC(Nc2ncc3nc(Nc4c(F)cc(F)cc4F)n([C@@H]4CCOC4)c3n2)CC1 (some centres undefined)
2. Cn1cnc2c1c(=O)[nH]c(=O)n2C
3. NC/1=N/[C@]2(COC[C@H]2CS1)C3=CC(=CC=C3F)NC(=O)C4=NC=C(F)C=C4
4. Cc1cnc(NC(=O)Nc2cc(Br)c(C)cc2OC[C@@H]2CNCCO2)cn1

1: 95.7; 2: 101; 3: 135; 4: 105
